response vs control in vivo at 200 mg/kg for assorted compounds
Tested on: phenol red retention in circulation
Assay: Uricosuric activity by phenol red retention test in mice
Type: in vivo, male mice
Settings: Mus musculus, po, 1 h; mice; p.o. 200 mg/kg, 30 min before 75 mg/kg phenol red; blood 60 min after phenol red; read-out: phenol red retention, percentage by comparison with the control group, P.O. (200 mg/kg)
Express the result in % but write the number alone.

Example entries and their recorded answers appear below.
CCc1oc2ccccc2c1C(=O)c1ccc(OCc2nnn[nH]2)cc1 [Compound 43]	430
CCc1oc2ccccc2c1C(=O)c1ccc(OCC(=O)OC)c(C)c1C [Compound 33]	133
C=C(CC(=O)c1c(CC)oc2ccccc12)C(=O)O [Compound 21]	165
CCc1oc2ccccc2c1C(=O)c1cc(C)c(OCC(=O)O)cc1C [Compound 39]	410
CCc1oc2ccccc2c1C(=O)c1ccc(OCC(=O)O)c(C)c1C [Compound 35]	319

[Q] Endpoint output: response vs control in vivo at 200 mg/kg of CCOC(=O)COc1ccc(C(=O)c2c(CC)oc3ccccc23)cc1 [Compound 6] . Value?
[A] 119

[Q] Item CCc1oc2ccccc2c1C(=O)c1ccc(OCC(=O)O)cc1 [Compound 3] has what recorded response vs control in vivo at 200 mg/kg?
[A] 175

[Q] response vs control in vivo at 200 mg/kg lookup needed for CCc1oc2ccccc2c1C(=O)c1ccc(OC(C)C(=O)O)cc1 (stereo not drawn) [Compound 5] , thanks.
[A] 176

[Q] Query (compound): CCc1oc2ccccc2c1C(=O)c1cc(C)c(O)c(C)c1 [Compound 40] ; field requested: response vs control in vivo at 200 mg/kg
[A] 183

====

Tested on: phenol red retention in circulation
Test: Uricosuric activity by phenol red retention test in mice
Assay type: in vivo, male mice
Details: Mus musculus, po, 1 h; mice; p.o. 200 mg/kg, 30 min before 75 mg/kg phenol red; blood 60 min after phenol red; read-out: phenol red retention, percentage by comparison with the control group, P.O. (200 mg/kg)
recorded metric: response vs control in vivo at 200 mg/kg (%)
Quick reminder: number only, in %, skip the unit.

CCOC(=O)COc1ccc(C(=O)c2c(C)oc3ccccc23)cc1	105
CCc1oc2ccccc2c1C(=O)c1ccc(OCC(=O)O)c(C)c1	200
CCOC(=O)COc1c(C)cc(C(=O)c2c(CC)oc3ccccc23)cc1C	183
CCc1oc2ccccc2c1C(=O)c1ccc(OCc2nnn[nH]2)c(Cl)c1	175
CCc1oc2ccccc2c1C(=O)c1ccc(OCC(N)=O)cc1	104
CCc1oc2ccccc2c1C(=O)c1ccc(OCC(=O)O)c(Cl)c1	190

Consider the record given below.
[Q] phenol red retention in circulation / response vs control in vivo at 200 mg/kg / Cc1oc2ccccc2c1C(=O)c1ccc(OCC(=O)O)cc1 : value?
[A] 135

====

Test system: phenol red retention in circulation
Assay: Uricosuric activity by phenol red retention test in mice
Type: in vivo, male mice
Settings: Mus musculus, po, 1 h; mice; p.o. 200 mg/kg, 30 min before 75 mg/kg phenol red; blood 60 min after phenol red; read-out: phenol red retention, percentage by comparison with the control group, P.O. (200 mg/kg)
# response vs control in vivo at 200 mg/kg per entry
Could you give the number and then its unit, please?

CCc1oc2ccccc2c1C(=O)c1cc(C)c(OCc2nnn[nH]2)c(C)c1 [Compound 48]	296%
CCc1oc2ccccc2c1C(=O)c1ccc(OCc2nnn[nH]2)c(C)c1C [Compound 46]	240%
Cc1oc2ccccc2c1C(=O)c1ccc(O)cc1 [Compound 16, 2-methyl-3-(4-hydroxybenzoyl)benzofuran]	112%

Now examine the next entry.
[Q] Hi! What's the reported response vs control in vivo at 200 mg/kg for CCCCOC(=O)COc1ccc(C(OCCCC)c2c(CC)oc3ccccc23)cc1 (stereo not shown) [Compound 15] on phenol red retention in circulation?
[A] 175%
